Entry source: ChEMBL document CHEMBL3822406

biological target: Serine/threonine-protein kinase PAK 1 (Homo sapiens); assay: Inhibition of recombinant human GST-tagged PAK1 kinase domain expressed in baculovirus expression system assessed as suppression of phosphorylation of coumarin/fluorescein-labelled FRET peptide substrate at Ser/Thr19 residues preincubated with substrate for 10 mins followed by enzyme addition measured after 60 mins by Z-Lyte assay
Sequence (Q13153 whole entry, the tested form may be a part): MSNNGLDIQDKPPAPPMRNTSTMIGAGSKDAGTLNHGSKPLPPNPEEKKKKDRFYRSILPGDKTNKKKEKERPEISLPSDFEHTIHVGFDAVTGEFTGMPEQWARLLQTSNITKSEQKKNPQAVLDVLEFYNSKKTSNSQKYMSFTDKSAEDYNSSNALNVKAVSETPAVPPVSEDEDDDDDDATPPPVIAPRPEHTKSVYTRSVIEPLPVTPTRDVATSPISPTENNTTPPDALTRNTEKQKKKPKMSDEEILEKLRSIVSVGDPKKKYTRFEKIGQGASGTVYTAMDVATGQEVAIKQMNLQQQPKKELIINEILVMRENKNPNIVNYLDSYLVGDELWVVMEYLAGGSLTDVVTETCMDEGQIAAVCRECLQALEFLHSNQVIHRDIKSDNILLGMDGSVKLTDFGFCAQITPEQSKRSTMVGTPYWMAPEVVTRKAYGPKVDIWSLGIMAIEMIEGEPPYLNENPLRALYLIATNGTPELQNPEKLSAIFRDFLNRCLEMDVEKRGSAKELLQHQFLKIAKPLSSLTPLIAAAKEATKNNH
pKi: −log10 of the molar value.
Parameter measured: pKi

>>> experimental_value("C[C@H](Nc1nccc(Nc2cc(C3CC3)[nH]n2)n1)c1nc2cc[nH]c2cc1F")
8.40
>>> experimental_value("c1cc(Nc2cc(C3CC3)[nH]n2)nc(NCc2ccc3nccn3c2)n1")
6.44
>>> experimental_value("C[C@H](Nc1nccc(Nc2cc(C3CC3)[nH]n2)n1)c1ccc2[nH]cc(Cl)c2n1")
8.22
>>> experimental_value("C[C@H](Nc1nccc(Nc2cc(C3CC(F)(F)C3)[nH]n2)n1)c1ccc2[nH]ccc2n1")
7.17
